Study Target: T1, full length human SIRPα v1 stably expressed on CHOK1 or 293F cells (human, UniProt P78324 31-504)
T1 construct: whole, on cells; also called CHOK1-human SIRPα v1; CHOK1-hSIRPα v1
T1 sequence (P78324 31-504): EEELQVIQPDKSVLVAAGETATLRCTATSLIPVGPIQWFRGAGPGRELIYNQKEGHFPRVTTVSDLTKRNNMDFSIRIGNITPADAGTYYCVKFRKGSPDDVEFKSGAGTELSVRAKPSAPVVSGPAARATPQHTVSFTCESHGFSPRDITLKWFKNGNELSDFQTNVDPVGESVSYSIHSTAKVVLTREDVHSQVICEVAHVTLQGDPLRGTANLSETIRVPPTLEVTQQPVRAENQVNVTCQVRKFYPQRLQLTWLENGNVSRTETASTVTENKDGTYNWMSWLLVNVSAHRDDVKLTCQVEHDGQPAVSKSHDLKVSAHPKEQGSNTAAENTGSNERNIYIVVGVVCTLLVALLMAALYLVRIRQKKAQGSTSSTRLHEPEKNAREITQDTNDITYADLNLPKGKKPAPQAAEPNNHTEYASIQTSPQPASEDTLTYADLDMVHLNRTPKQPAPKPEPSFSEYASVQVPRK
Experimental Details: FACS, CHOK1-hSIRPα v1 cells
Recorded Endpoint: pEC50
Note: pEC50 values are expressed as the negative base-10 logarithm of concentration in M.

Examples from the recorded data:
Binder	Recorded Endpoint	Result Value
hu025.060 (antibody, V domains shown, Humanized 025; also called hu025.60) VH: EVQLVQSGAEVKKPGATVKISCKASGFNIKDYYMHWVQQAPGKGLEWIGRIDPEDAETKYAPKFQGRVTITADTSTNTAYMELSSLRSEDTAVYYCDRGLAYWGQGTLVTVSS VL: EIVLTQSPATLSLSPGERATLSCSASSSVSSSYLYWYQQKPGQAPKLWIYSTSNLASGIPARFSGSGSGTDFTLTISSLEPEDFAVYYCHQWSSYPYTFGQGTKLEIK	pEC50	9.08
hu025.059 (antibody, V domains shown, Humanized 025; also called hu025.59) VH: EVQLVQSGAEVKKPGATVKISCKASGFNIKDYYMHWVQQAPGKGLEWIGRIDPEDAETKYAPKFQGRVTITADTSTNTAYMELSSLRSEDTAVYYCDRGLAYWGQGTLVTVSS VL: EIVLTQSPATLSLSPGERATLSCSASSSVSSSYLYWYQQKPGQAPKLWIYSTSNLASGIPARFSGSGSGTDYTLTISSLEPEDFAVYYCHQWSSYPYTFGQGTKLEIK	pEC50	8.98
hu025.033 (antibody, V domains shown, Humanized 025) VH: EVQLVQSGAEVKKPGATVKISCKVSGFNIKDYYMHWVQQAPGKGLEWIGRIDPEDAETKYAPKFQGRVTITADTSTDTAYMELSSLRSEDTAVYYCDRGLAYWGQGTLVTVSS VL: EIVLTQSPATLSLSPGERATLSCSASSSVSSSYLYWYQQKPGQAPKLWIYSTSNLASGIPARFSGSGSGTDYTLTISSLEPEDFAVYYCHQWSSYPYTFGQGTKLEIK	pEC50	9.00
hu025.021 (antibody, V domains shown, Humanized 025; also called hu025.21) VH: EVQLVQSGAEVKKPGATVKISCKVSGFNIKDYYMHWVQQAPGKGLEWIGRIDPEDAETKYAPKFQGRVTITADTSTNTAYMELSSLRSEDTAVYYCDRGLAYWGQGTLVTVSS VL: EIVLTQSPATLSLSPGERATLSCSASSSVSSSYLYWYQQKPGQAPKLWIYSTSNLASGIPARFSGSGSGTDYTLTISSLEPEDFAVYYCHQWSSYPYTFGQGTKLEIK	pEC50	8.97
025c (antibody, V domains shown, also called chimeric antibody 025c; parental antibody of 025c) VH: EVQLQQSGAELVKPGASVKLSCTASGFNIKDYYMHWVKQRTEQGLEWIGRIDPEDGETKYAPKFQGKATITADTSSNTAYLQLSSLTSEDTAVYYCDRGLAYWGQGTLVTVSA VL: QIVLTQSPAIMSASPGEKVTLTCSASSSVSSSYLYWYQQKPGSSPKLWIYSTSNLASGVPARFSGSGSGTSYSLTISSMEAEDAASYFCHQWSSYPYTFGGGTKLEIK	pEC50	8.91

The binder hu025.023 (antibody, V domains shown, Humanized 025; also called hu025.23) VH: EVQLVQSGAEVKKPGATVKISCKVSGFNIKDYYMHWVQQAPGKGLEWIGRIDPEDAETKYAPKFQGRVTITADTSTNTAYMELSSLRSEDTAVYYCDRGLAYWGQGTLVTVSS VL: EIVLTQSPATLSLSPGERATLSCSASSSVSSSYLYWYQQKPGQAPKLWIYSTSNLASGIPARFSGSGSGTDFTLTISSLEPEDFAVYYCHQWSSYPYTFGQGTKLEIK showed pEC50 equal to 8.95
